Target: T1, human TREM2 (human, UniProt Q9NZC2 19-230)
T1 sequence: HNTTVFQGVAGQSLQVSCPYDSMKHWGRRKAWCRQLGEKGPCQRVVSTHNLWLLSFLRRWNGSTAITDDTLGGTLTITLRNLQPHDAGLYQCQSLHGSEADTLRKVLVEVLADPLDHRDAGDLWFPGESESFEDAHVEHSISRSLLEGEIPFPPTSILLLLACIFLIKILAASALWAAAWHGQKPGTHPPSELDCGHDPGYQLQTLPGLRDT
Assay: cell-based or functional assay
quantity: Fold over isotype control at 66 nM (fold)
Give bare numbers, in fold.

Known Fold over isotype control at 66 nM results, listed for orientation:
EOS006173 (antibody, V domains shown, also called EOS061730) VH: EVQLVESGGGLVQPGRSLRLSCTASGFTFGDYAMSWFRQAPGKGLEWVGFIGSKAYGGTTEYTASVKGRFTISRDGSKSIAYLQMNSLKTEDTAVYYCARGKRRDYGYWHPAFDVWGQGTMVTVSS VL: DIQMTQSPSSLSASVGDRVTITCQASQDITNYLNWYQQKPGKAPKLLIYDASNLETGVPSRFSGSGSGTDFTFTISSLQPEDIATYYCQEYDQYLTFGGGTKVEIK :: 1.34
EOS006162 (antibody, V domains shown) VH: QVQLVQSGAEVKKPGSSVKVSCKASGGTFSSYAISWVRQAPGQGLEWMGGIIPISGTANYAQKFQGRVTITADESTSTAYMELSSLRSEDTAVYYCARTQEYTLFDSWGQGTMVTVSS VL: EIVLTQSPATLSLSPGERATLSCRASQSVSSYLAWFQQKPGQAPRLLIYDASNRATGIPARFSGSGSGTDFTLTISSLEPEDFAVYYCQQDYHWPITFGGGTKVEIK :: 0.785

Here are 3 binders. What values of Fold over isotype control at 66 nM were reported for them?
1. 6E7 (antibody, V domains shown) VH: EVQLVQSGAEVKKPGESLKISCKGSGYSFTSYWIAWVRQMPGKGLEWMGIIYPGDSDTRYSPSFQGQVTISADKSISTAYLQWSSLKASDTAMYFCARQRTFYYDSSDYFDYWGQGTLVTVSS VL: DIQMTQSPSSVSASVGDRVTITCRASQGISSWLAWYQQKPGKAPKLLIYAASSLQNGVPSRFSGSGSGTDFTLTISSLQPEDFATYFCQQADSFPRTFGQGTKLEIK
2. EOS006172 (antibody, V domains shown) VH: QVQLVQSGAEVKKPGSSVKVSCKASGGTFSSYAISWVRQAPGQGLEWMGGIIPISGTANYAQKFQGRVTITADESTSTAYMELSSLRSEDTAVYYCARTQEYTLFDIWGQGTMVTVSS VL: EIVLTQSPATLSLSPGERATLSCRASQSVSSYLAWFQQKPGQAPRLLIYDASNRATGIPARFSGSGSGTDFTLTISSLEPEDFAVYYCQQDFHWPITFGGGTKVEIK
3. EOS006163 (antibody, V domains shown) VH: QVQLVQSGAEVKKPGSSVKVSCKASGGTFAQYAISWVRQAPGQGLEWMGVIIPDSGTANYAQKFQGRVTITADESTSTAYMELSSLRSEDTAVYYCARTQENTIFDIWGQGTMVTVSS VL: EIVLTQSPATLSLSPGERATLSCRASQSVSSYLAWFQQKPGQAPRLLIYDASNRATGIPARFSGSGSGTDFTLTISSLEPEDFAVYYCQQDYEWPITFGGGTKVEIK

1: 1.93; 2: 0.59; 3: 0.701

Numbers sourced from patent US20250282868A1.
